system-name: Jak2 (UniProt O60674)
Sequence (O60674 whole entry, looked up): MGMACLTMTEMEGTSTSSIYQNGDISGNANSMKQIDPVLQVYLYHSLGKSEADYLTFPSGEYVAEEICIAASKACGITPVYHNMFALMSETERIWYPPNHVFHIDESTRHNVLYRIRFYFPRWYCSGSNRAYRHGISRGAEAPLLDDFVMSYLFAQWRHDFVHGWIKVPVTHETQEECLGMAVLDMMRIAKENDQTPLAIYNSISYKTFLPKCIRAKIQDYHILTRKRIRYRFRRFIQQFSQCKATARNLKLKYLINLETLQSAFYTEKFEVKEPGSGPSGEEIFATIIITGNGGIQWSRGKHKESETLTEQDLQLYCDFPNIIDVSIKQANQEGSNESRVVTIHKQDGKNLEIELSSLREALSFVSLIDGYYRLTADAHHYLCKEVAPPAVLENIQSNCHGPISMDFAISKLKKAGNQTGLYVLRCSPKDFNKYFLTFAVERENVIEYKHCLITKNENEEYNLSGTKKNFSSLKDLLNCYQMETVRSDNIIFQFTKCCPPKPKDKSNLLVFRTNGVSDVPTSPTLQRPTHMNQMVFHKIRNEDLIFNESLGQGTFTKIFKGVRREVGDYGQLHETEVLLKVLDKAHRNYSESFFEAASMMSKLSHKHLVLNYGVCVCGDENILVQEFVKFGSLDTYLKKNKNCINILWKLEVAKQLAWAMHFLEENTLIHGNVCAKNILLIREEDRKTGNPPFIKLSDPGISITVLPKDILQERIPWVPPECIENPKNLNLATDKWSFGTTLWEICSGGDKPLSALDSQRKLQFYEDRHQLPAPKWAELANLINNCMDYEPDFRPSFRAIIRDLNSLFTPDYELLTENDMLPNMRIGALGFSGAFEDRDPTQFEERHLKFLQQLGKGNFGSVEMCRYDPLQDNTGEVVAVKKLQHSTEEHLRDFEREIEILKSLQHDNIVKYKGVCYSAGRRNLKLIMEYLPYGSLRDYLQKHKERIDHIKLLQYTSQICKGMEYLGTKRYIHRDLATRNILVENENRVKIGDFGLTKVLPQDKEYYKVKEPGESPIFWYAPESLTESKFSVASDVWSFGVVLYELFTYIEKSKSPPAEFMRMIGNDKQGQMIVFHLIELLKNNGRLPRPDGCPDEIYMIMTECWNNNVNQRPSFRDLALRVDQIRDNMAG
test-protocol: phosphorylation enrichment, bacterial display (enrichment ratio); higher = better substrate or ligand; peptides without Tyr show the background;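 also: 11-residue human phosphosite peptides and single-mutation variants displayed on the E. coli surface, counted by deep sequencing, each peptide's frequency after selection divided by its frequency in the unselected input library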;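 also: frequency after pTyr selection over input frequency; kinase dosed for 20-30% of maximal phosphorylation in three min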
test-readout: phosphorylation enrichment
# print the numeric value only

Response field phosphorylation enrichment (Jak2 (UniProt O60674)) for item CLAKMYFSAVD [CP_Y539_YF] : 1.06

Case SGIFQYIIAKF [FOXL2_Y83_YF] , Jak2 (UniProt O60674), phosphorylation enrichment recorded as 1.07

// phosphorylation enrichment (Jak2 (UniProt O60674)) for GCAGKYIAMVM [CYP19A1_Y441] = 0.889

Value (phosphorylation enrichment, Jak2 (UniProt O60674)) for record VYAADYYKLLG [ROR2_Y645] = 7.96

So the reported phosphorylation enrichment for PMFTKYGNGLL [RPGRIP1L_Y196_S199G] , on Jak2 (UniProt O60674), turned out to be 1.09

Log: Jak2 (UniProt O60674), sequence EEQKKYYNAVK [SCN5A_Y1494_M1498V] , phosphorylation enrichment = 0.625

The sequence RRIFSYRGHLW [VHL_Y112_H110Y_YF] on Jak2 (UniProt O60674): phosphorylation enrichment was 0.587

// phosphorylation enrichment (Jak2 (UniProt O60674)) for HFIKLYEEKTG [PARP1_Y618_M615I] = 1.03

Lab note: sequence SWSTSYSGFRC [NKAPL_Y91_Y96C_YF] tested on Jak2 (UniProt O60674); recorded phosphorylation enrichment was 0.877

Entry ISDNAYQFMLT [MYH7_Y162_YF] under Jak2 (UniProt O60674) had phosphorylation enrichment of 0.957

Reference for the values: the supplement of paper PMC10065799
